targetSystem: IDH1-R132H recombinant protein (Homo sapiens, UniProt O75874, R132H)
Sequence (O75874 whole entry R132H): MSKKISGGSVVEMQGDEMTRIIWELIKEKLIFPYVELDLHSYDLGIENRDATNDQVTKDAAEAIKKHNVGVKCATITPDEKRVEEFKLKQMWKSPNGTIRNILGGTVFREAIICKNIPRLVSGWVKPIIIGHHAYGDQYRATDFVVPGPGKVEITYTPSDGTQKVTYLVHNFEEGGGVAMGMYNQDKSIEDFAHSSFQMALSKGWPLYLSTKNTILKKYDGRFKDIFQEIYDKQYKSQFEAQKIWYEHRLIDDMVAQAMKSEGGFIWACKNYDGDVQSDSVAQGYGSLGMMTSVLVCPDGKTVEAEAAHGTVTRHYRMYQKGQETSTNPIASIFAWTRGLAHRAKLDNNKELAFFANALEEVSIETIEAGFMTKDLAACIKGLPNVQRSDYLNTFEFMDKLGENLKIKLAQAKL
testSummary: IDH1-R132H enzymatic assay (NADPH consumption, diaphorase/resazurin readout)
Format: biochemical
measurementConditions: read-out: Enzyme IDH1 R132H IC50 Range
parameter: IC50

Below are worked cases with known answers.
{"molecule": "N#Cc1ccc(NCc2cc3cc(Cl)ccc3[nH]c2=O)cc1OCCO", "parameter": "IC50", "val": "100 to 1000 nM"}
{"molecule": "COc1cc(NCc2cc3cc(Cl)c(OCc4cnccn4)cc3[nH]c2=O)ccc1C#N", "parameter": "IC50", "val": "10 to 100 nM"}

Okay, now this molecule:
[ask] What value of IC50 has been recorded for this entry: COc1cc(NCc2cc3cc(Cl)ccc3[nH]c2=O)ccc1-n1ccnc1
[reply] > 1000 nM

----------
targetSystem: IDH1-R132H recombinant protein (Homo sapiens, UniProt O75874, R132H)
testSummary: IDH1-R132H enzymatic assay (NADPH consumption, diaphorase/resazurin readout)
Type: biochemical
measurementConditions: read-out: Enzyme IDH1 R132H IC50 Range
Procedure: Assays were performed in a 384-well black plate. […] The IC50 of a given compound was calculated by fitting the dose response curve of inhibition of NADPH consumption at a given concentration with the four parameter logistic equation.
parameter: IC50

[ask] What value of IC50 has been recorded for this entry: COc1cc(NCc2cc3cc(Cl)c(O)cc3[nH]c2=O)ccc1C#N [Compound I-57]
[reply] 10 to 100 nM

[ask] Please answer likewise for COc1cc(NCc2cc3cc(Cl)c(OCC(=O)N4CCOCC4)cc3[nH]c2=O)ccc1C#N [Compound I-69]
[reply] 10 to 100 nM

[ask] Please answer likewise for COc1cc(NCc2cc3cc(Cl)c(OCCn4ccnc4)cc3[nH]c2=O)ccc1C#N [Compound I-89]
[reply] 10 to 100 nM

[ask] Please answer likewise for O=c1[nH]c2ccccc2cc1CNc1ccc(-n2cnnn2)cc1 [Compound I-49]
[reply] > 1000 nM

[ask] Please answer likewise for COc1cc(NCc2cc3ccccc3[nH]c2=O)ccc1C#N [Compound I-47]
[reply] 100 to 1000 nM

[ask] Please answer likewise for COc1cc(NCc2cc3cc(Cl)ccc3[nH]c2=O)ccc1F [Compound I-41]
[reply] > 1000 nM

----------
targetSystem: IDH1-R132C recombinant protein (Homo sapiens, UniProt O75874, R132C)
Sequence (O75874 whole entry R132C): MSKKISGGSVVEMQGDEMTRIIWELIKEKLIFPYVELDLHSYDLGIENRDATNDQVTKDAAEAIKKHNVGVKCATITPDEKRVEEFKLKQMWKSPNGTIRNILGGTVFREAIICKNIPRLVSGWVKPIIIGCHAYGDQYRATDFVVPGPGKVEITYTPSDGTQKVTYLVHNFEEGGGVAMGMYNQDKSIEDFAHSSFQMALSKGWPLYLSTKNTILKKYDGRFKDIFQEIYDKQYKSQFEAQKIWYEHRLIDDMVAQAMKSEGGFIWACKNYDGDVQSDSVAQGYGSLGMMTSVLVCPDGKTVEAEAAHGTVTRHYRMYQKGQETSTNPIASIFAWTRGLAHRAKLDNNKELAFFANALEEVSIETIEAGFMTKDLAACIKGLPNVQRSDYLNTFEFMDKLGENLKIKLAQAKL
testSummary: IDH1-R132C enzymatic assay (NADPH consumption, diaphorase/resazurin readout)
measurementConditions: read-out: Enzyme IDH1 R132C IC50 Range
pIC50: −log10 of the molar value.
parameter: pIC50

Below are worked cases with known answers.
{"compound": "COc1cc(NCc2cc3cc(Cl)cc(OCCN4CCCC4)c3[nH]c2=O)ccc1C#N", "pIC50": "< 6.00"}
{"compound": "COc1cc(NCc2cc3cc(Cl)c(OCCCN4CCCC4)cc3[nH]c2=O)ccc1C#N", "pIC50": "< 6.00"}

[ask] What value of pIC50 has been recorded for this entry: COc1cc(NCc2cc3cc(Cl)cc(OC)c3[nH]c2=O)ccc1C#N
[reply] < 6.00

----------
targetSystem: IDH1-R132C recombinant protein (Homo sapiens, UniProt O75874, R132C)
testSummary: IDH1-R132C enzymatic assay (NADPH consumption, diaphorase/resazurin readout)
measurementConditions: read-out: Enzyme IDH1 R132C IC50 Range
Below is a list of entries, each paired with its recorded IC50 value.

{"chemSmiles": "COc1cc2[nH]c(=O)c(CNc3ccc(C#N)c(OC)c3)cc2cc1Cl", "parameter": "IC50", "val": "100 to 1000 nM"}
{"chemSmiles": "COc1cc(NCc2cc3cc(Cl)c(OCCCN(C)C)cc3[nH]c2=O)ccc1C#N", "parameter": "IC50", "val": "> 1000 nM"}
{"chemSmiles": "COc1cc(NCc2cc3cc(Cl)ccc3[nH]c2=O)ccc1C#N", "parameter": "IC50", "val": "> 1000 nM"}
{"chemSmiles": "COc1cc2[nH]c(=O)c(CNc3ccc(C#N)c(OC)c3)cc2cc1F", "parameter": "IC50", "val": "> 1000 nM"}

Okay, now this compound:
[ask] What value of IC50 has been recorded for this entry: COc1cc(NCc2cc3cc(Cl)c(OCCc4ccncc4)cc3[nH]c2=O)ccc1C#N
[reply] > 1000 nM
